Target: human CB2 receptor (Homo sapiens (Human))
Experiment: CB2 receptor binding assay ([3H]CP-55,940 displacement, HEK-293 membranes)
Conditions: membranes of HEK-293 cells with human recombinant CB2R, [3H]CP-55,940; class symbols; read-out: CB2 IC50
reported-property: IC50

Answered examples (3):
{"columns": ["compound", "reported-property", "observed-result"],
 "data": [
  ["O=C(NC1CC2(CCC2)C1)c1c(O)c2cccnc2n(CCN2CCOCC2)c1=O [Compound 135]", "IC50", "< 100 nM"],
  ["O=C(NC1CC2(CC2)C1)c1c(O)c2cc(-c3ccc(F)cc3)cnc2n(CCN2CCOCC2)c1=O [Compound 112]", "IC50", "< 100 nM"],
  ["C[C@H]1CC[C@@H](NC(=O)c2c(O)c3cc(-c4ccc(F)cc4)ccc3n(CCN3CCOCC3)c2=O)CC1 [Compound 159]", "IC50", "< 100 nM"]
]}

IC50 recorded for this compound, O=C(NC12CC(C1)C2)c1cc2cc(Br)cnc2n(Cc2ccc(F)cc2)c1=O [Compound 82] , is < 100 nM

IC50 recorded for this compound, COc1ccc(-c2cnc3c(c2)cc(C(=O)NC2CC4(COC4)C2)c(=O)n3CCN2CCOCC2)cc1 [Compound 31] , is < 100 nM

----------
Each item that follows carries a reported pIC50.
Biological target: human CB2 receptor (Homo sapiens (Human))
Assay: CB2 receptor cAMP assay (DiscoverX HitHunter cAMP XS+)
Type: cell-based
For clarity, pIC50 is expressed as the negative log10 of concentration in mol/L.

{"columns": ["compound", "reported-property", "observed-result"],
 "data": [
  ["CC1CCC(NC(=O)c2c(O)c3cc(-c4ccc5c(c4)OCCO5)cnc3n(CCN3CCOCC3)c2=O)CC1 (stereo not shown) [Compound 19]", "pIC50", 7.37]
]}

pIC50 recorded for this compound, C[C@@H](NC(=O)c1cc2cc(C3COC3)cnc2n(Cc2ccc(F)cc2)c1=O)c1ccc(F)cc1 [Compound 103] , is 8.05

pIC50 recorded for this compound, CC1CCC(NC(=O)c2cc3cc(-c4ccc(OC(F)F)cc4)cnc3n(CCN3CCOCC3)c2=O)CC1 (stereo not shown) [Compound 51] , is 8.70

pIC50 recorded for this compound, CC1CCC(NC(=O)c2cc3cc(Br)cnc3n(CCN3CCOCC3)c2=O)CC1 (stereo not shown) [Compound 61] , is 7.89

pIC50 recorded for this compound, COc1ccc(-c2cnc3c(c2)c(O)c(C(=O)NC2CC4(CCC4)C2)c(=O)n3CCN2CCOCC2)cc1 [Compound 10] , is 8.15

pIC50 recorded for this compound, N#Cc1ccc(-c2cnc3c(c2)cc(C(=O)NC2CC4(CCC4)C2)c(=O)n3CCN2CCOCC2)nc1 [Compound 36] , is 7.89

pIC50 recorded for this compound, COc1ccc(-c2cnc3c(c2)cc(C(=O)NC(C)c2ccc(F)cc2)c(=O)n3CCN2CCOCC2)cc1 (stereo not shown) [Compound 30] , is 7.77

pIC50 recorded for this compound, CC1CCC(NC(=O)c2cc3cc(-c4ccccn4)cnc3n(CCN3CCOCC3)c2=O)CC1 (stereo not shown) [Compound 62] , is 7.89

pIC50 recorded for this compound, CC1CCC(NC(=O)c2c(O)c3cc(-c4ccc(OC(F)F)cc4)cnc3n(CCN3CCOCC3)c2=O)CC1 (stereo not shown) [Compound 15] , is 7.68

pIC50 recorded for this compound, COc1ccc(-c2cnc3c(c2)cc(C(=O)NC24CC(C2)C4)c(=O)n3CCN2CCOCC2)cc1 [Compound 50] , is 9.22

----------
Each item that follows carries a reported Emax.
Target: human CB2 receptor (Homo sapiens (Human), UniProt P34972)
Sequence (P34972 whole entry): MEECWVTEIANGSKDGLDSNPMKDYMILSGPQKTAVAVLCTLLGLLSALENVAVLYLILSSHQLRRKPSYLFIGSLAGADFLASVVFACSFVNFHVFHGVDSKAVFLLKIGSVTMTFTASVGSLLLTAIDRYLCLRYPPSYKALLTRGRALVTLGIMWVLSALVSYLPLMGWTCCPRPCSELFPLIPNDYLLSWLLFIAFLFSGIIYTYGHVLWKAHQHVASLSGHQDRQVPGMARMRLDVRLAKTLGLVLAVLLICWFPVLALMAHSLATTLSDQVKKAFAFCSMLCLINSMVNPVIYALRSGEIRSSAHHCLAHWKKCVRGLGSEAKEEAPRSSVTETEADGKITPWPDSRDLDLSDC
Assay: CB2 receptor cAMP assay (DiscoverX HitHunter cAMP XS+)
Format: cell-based
Settings: CHO-K1, read-out: Max Stimulation %
Note: unit % is implicit; provide only the numeric part.

Answered examples (2):
{"columns": ["smiles-representation", "reported-property", "units-symbol", "observed-result"],
 "data": [
  ["COc1ccc(-c2cnc3c(c2)cc(C(=O)NC24CC(C2)C4)c(=O)n3CCN2CCOCC2)cc1", "Emax", "%", 80],
  ["O=C(NC1CC2(CCC2)C1)c1cc2cc(C3COC3)cnc2n(Cc2ccc(F)cc2)c1=O", "Emax", "%", 79]
]}

Now for the compound whose Emax we want.
Measured Emax (human CB2 receptor (Homo sapiens (Human), UniProt P34972)), entry N#Cc1ccc(-c2cnc3c(c2)cc(C(=O)NC2CC4(CCC4)C2)c(=O)n3Cc2ccc(F)cc2)nc1 : 79

----------
Biological target: human CB2 receptor (Homo sapiens (Human), UniProt P34972)
Experiment: CB2 receptor cAMP assay (DiscoverX HitHunter cAMP XS+)
Format: cell-based
Details: CHO-K1, read-out: Max Stimulation %
reported-property: Emax (%)
Note: unit % is implicit; provide only the numeric part.

Answered examples (2):
{"columns": ["molecule", "reported-property", "observed-result"],
 "data": [
  ["CC1CCC(NC(=O)c2c(O)c3cc(-c4ccc5c(c4)OCCO5)cnc3n(CCN3CCOCC3)c2=O)CC1 (stereo not drawn) [Compound 19]", "Emax", 81],
  ["COc1ccc(-c2cnc3c(c2)c(O)c(C(=O)NC2CC4(CCC4)C2)c(=O)n3CCN2CCOCC2)cc1 [Compound 10]", "Emax", 82]
]}

Now for the molecule whose Emax we want.
Emax recorded for this molecule, CC(C)c1cnc2c(c1)cc(C(=O)N[C@H](C)c1ccc(F)cc1)c(=O)n2Cc1ccc(F)cn1 [Compound 100] , is 82

----------
Molecular target: human recombinant CB1R (Homo sapiens (Human))
Assay: CB1 receptor binding assay ([3H]CP-55,940 displacement, HEK-293 membranes)
Conditions: membranes of HEK-293 cells with human recombinant CB1R, [3H]CP-55,940; read-out: CB1 IC50
pIC50: −log10 of the molar value.
reported-property: pIC50

Answered examples (2):
{"columns": ["smiles-representation", "pIC50"],
 "data": [
  ["COc1ccc(-c2cnc3c(c2)cc(C(=O)NC2CCC(C)(C)CC2)c(=O)n3CCN2CCOCC2)cc1", "< 5.00"],
  ["N#Cc1ccc(-c2cnc3c(c2)cc(C(=O)NC2CC4(CCC4)C2)c(=O)n3CCN2CCOCC2)nc1", "< 5.00"]
]}

Now for the molecule whose pIC50 we want.
pIC50 recorded for this molecule, COc1ccc(-c2cnc3c(c2)cc(C(=O)NC2CCC4(CC2)CC4)c(=O)n3CCN2CCOCC2)cc1 , is < 5.00

----------
Molecular target: human recombinant CB1R (Homo sapiens (Human), UniProt P21554)
Sequence (P21554 whole entry): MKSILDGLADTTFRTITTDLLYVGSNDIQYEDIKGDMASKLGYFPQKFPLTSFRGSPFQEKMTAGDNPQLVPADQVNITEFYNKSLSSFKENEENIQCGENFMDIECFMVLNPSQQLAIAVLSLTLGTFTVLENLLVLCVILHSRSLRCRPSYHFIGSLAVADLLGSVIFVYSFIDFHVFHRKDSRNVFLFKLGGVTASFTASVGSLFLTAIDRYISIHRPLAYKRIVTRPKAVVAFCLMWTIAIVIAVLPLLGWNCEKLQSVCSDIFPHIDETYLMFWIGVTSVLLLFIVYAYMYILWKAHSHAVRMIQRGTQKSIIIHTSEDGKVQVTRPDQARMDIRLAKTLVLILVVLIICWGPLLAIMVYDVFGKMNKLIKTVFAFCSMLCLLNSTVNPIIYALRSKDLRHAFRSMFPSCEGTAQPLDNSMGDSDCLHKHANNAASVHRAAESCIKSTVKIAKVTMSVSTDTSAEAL
Experiment: CB1 receptor binding assay ([3H]CP-55,940 displacement, HEK-293 membranes)
Settings: membranes of HEK-293 cells with human recombinant CB1R, [3H]CP-55,940; read-out: CB1 IC50
Experimental: The compounds were evaluated in CB1R and CB2R binding assays using membranes from HEK-293 cells transfected with cDNAs encoding the human recombinant CB1R (Bmax=[…] protein) and human recombinant CB2R (Bmax=[…] protein) (Perkin-Elmer). […]. […] The filters are dried for 1 hour at 50° C. and [^3H] trapped on filter counted for radioactivity in Perkin Elmer Microscint 20 cocktail (#6013329) using Perkin Elmer MicroBeta2 Reader. […]
pIC50: −log10 of the molar value.
reported-property: pIC50

Answered examples (4):
{"columns": ["compound", "observed-result"],
 "data": [
  ["COc1ccc(-c2cnc3c(c2)c(O)c(C(=O)NC2CC4(CCC4)C2)c(=O)n3CCN2CCOCC2)cc1", "< 5.00"],
  ["COc1ccc(-c2cnc3c(c2)cc(C(=O)NC(C)c2ccc(F)cc2)c(=O)n3CCN2CCOCC2)cc1 (centres unmarked)", "< 5.00"],
  ["O=C(NC1CC2(CCC2)C1)c1c(O)c2cc(-c3ccc(F)cc3)cnc2n(CCN2CCOCC2)c1=O", "< 5.00"],
  ["CC(NC(=O)c1cc2cc(-c3ccc(OC(F)F)cn3)cnc2n(CCN2CCOCC2)c1=O)c1ccc(F)cc1 (centres unmarked)", 5.53]
]}

Now for the compound whose pIC50 we want.
pIC50 recorded for this compound, COc1ccc(-c2cnc3c(c2)c(O)c(C(=O)NC2CCC(C)CC2)c(=O)n3CCN2CCOCC2)cc1 (centres unmarked) , is < 5.00

----------
Target: human CB2 receptor (Homo sapiens (Human), UniProt P34972)
Assay: CB2 receptor binding assay ([3H]CP-55,940 displacement, HEK-293 membranes)
Details: membranes of HEK-293 cells with human recombinant CB2R, [3H]CP-55,940; class symbols; read-out: CB2 IC50
Each item that follows carries a reported IC50.

Answered examples (2):
{"columns": ["smiles-representation", "IC50"],
 "data": [
  ["O=C(NC12CC(C1)C2)c1c(O)c2cccnc2n(Cc2ccc(F)cc2)c1=O", "> 1000 nM"],
  ["CC1(C)CC(NC(=O)c2c(O)c3cc(-c4ccc(F)cc4)cnc3n(CCN3CCOCC3)c2=O)C1", "< 100 nM"]
]}

IC50 recorded for this molecule, Cc1ccc(NC(=O)c2cc3cc(Br)cnc3n(Cc3ccc(F)cc3)c2=O)cc1 , is > 1000 nM

These data points were gathered from patent US11564928B1.
